# experimentalSystem: human apelin receptor (Homo sapiens, UniProt P35414)
# Sequence (P35414 whole entry): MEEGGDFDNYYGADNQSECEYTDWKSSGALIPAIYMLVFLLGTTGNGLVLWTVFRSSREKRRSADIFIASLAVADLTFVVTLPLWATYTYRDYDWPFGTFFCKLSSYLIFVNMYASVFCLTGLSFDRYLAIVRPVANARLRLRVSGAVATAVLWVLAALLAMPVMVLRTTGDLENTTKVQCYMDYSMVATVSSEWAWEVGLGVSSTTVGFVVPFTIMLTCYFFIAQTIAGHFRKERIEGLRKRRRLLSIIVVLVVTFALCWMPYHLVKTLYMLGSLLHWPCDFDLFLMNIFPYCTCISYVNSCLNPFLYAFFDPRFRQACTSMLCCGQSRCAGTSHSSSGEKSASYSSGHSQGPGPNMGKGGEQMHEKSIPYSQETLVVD
# procedureText: Measurement of apelin receptor agonist activity (cell-based assay determining the amount of intracellular cAMP)
# assaySetup: CHO cells stably expressing the human apelin receptor, Forskolin 10 μM, 30 minutes, 100% efficacy = [Pyr1]-apelin-13 0.300 μM, concentration giving 50% efficacy
pEC50: −log10 of the molar value.
Label n if pEC50 falls below 6; label y in every other case.

The following molecules have reported results that may help.
>  <molecule>
COc1cccc(OC)c1-n1c(/C=C/C(N)=O)nnc1-c1ccc(C)o1 [Example 19]

>  <experimentalSystem>
human apelin receptor (Homo sapiens, UniProt P35414)

>  <discreteLabel>
y

$$$$
>  <molecule>
COc1cccc(OC)c1-n1c(SC(C(=O)O)c2ccccc2)nnc1-c1ccc(C)o1 (stereo not drawn) [Example 35]

>  <experimentalSystem>
human apelin receptor (Homo sapiens, UniProt P35414)

>  <discreteLabel>
y

$$$$
>  <molecule>
COc1cccc(OC)c1-n1c(SCC2=NOC(=O)C2)nnc1-c1ccc(C)o1 [Example 103]

>  <experimentalSystem>
human apelin receptor (Homo sapiens, UniProt P35414)

>  <discreteLabel>
y

$$$$
>  <molecule>
COc1cccc(OC)c1-n1c(SCc2ccc(C(=O)O)cc2)nnc1-c1ccc(C)o1 [Example 82]

>  <experimentalSystem>
human apelin receptor (Homo sapiens, UniProt P35414)

>  <discreteLabel>
n

$$$$

Does the molecule COc1cccc(OC)c1-n1c(SCC(=O)O)nnc1-c1ccc(C)o1 [Example 5] have recorded pEC50 that is 6 or more?
y

Each recorded value in this set is attributed to patent US11155525B2.
